Each entry below carries its recorded pIC50.
Target: SOS1:KRAS (G12C) interaction (Homo sapiens (Human), UniProt Q07889)
Experiment: SOS1-KRas(G12C) FRET Assay
Conditions: 0.5 nM His10-SOS1 (res. 564-1049), 2.5 nM GST-KRAS (res. 1-169, G12C); read-out: SOS-KRas(G12C) FRET IC50
Here pIC50 is given on a logarithmic scale as minus log10 of the concentration in mol/L.

# example entries with known answers
1) C[C@@H](Nc1nn(C)c(=O)c2cc(=O)n([C@H]3CC34CC4)cc12)c1cccc(C(F)F)c1F (single isomer, unassigned): 6.95
2) C[C@@H](Nc1nn(C)c(=O)c2cc(=O)n([C@H]3C[C@@H]3C3CC3)cc12)c1cccc(C(F)F)c1F (single isomer, unassigned): 7.15

Ask | Give pIC50 for the following compound: C[C@@H](Nc1nn(C)c(=O)c2cc(=O)n(C3CC3)cc12)c1cccc2ccccc12
Reply | 5.99

====

# Kd measurements, system: human SOS1 (Homo sapiens (Human))
# Sequence (Q07889 564-1049): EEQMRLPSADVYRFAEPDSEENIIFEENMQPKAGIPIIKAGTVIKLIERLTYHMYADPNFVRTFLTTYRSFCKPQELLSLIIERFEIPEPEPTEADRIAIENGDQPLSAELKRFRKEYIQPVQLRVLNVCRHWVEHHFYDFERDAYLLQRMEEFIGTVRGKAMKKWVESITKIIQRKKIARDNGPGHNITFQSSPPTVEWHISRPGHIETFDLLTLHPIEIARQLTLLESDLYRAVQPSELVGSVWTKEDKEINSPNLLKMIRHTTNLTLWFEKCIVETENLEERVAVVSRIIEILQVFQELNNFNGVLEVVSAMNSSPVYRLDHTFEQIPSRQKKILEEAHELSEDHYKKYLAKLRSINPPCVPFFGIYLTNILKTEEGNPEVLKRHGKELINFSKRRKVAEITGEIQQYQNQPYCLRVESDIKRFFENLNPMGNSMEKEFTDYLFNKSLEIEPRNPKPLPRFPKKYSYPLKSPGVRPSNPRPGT

# example entries with known answers
1) C[C@H](Nc1nn(C)c(=O)c2cc(=O)n(C3CC3)cc12)c1ccc2c(C#N)nn(C)c2c1 (single isomer, unassigned): > 50000 nM
2) COc1c(=O)n([C@@H]2CCOC[C@H]2F)cc2c(N[C@H](C)c3cccc(C(F)F)c3F)nn(C)c(=O)c12 (single isomer, unassigned): 10 nM
3) Cc1c([C@@H](C)Nc2nn(C)c(=O)c3c(Br)c(=O)n(C4CC4)cc23)cccc1C(F)(F)F: 63 nM
4) C[C@@H](Nc1nn(C)c(=O)c2cc(=O)n(C3CC(C#N)C3)cc12)c1cccc(C(F)F)c1F (some centres unmarked): 37 nM

Ask | Give Kd for the following molecule: Cc1cc([C@H](C)Nc2nn(C)c(=O)c3cc(=O)n(C4CC4)cc23)cc2c1c(C#N)nn2C (single isomer, unassigned)
Reply | 3020 nM

Origin of measurements: patent US20240279221A1
